B1: Osa-1-4 twister ribozyme (parent)
chain: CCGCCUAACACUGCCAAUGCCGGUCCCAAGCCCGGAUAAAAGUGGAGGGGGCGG

Variants of: B1
assay notes: self-cleavage, relative activity (ratio to wild type); higher = more cleavage; co-transcriptional
Classification field: Y = self-cleavage at or over 0.2; N = self-cleavage under 0.2.

Answer whether self-cleavage of C52G G23U is greater than or equal to 0.2.
N

Queued: A10G U18C
Y

Queued: A7G U37A
Y

Queued: G34A G49A
N

Queued: A38G G35U
Y

Queued: A40C A7U
N

Queued: A39C G51U
Y

Hey, just so you know, these numbers are from the RNAGym collection of RNA variant scans (doi:10.1002/anie.201605470).
